// data source = patent EP2241555A1

assay-overview: PAMPA (Parallel Artificial Membrane Permeability Assay)
Type: in vitro ADME
recorded-conditions: start concentration 250 µM, diffusion period 16 h
Please note: class 1 applies when PAMPA flux [%] ± SD is 10% or greater, and class 0 applies otherwise.

As a guide, the following entries are already answered.
| molecule | class-name |
| --- | --- |
| c1cc(NCc2ccc3[nH]ccc3c2)nc(NCc2ccc3[nH]ccc3c2)n1 | class 1 |
| CCN(CC)CCCC(C)Nc1nccc(Nc2ccc3[nH]c(C)cc3c2)n1 (stereo not drawn) | class 0 |
| CCN(CC)CCCC(C)Nc1nc(C)cc(Nc2ccc3nc(C)cc(N)c3c2)n1 (racemic) [NSC23766, reference compound] | class 1 |
| CCN(CC)CCCC(C)Nc1nccc(Nc2cnc3ccccc3c2)n1 (stereo not drawn) | class 1 |
| COC(=O)C(CC(C)C)Nc1cc(C)nc(Nc2ccc3ncccc3c2)n1 (stereo not drawn) | class 1 |

Then there is this molecule:
Please check the record CCN(CC)CCCC(C)Nc1nccc(Nc2ccc3[nH]ccc3c2)n1 (stereo not drawn) and state if its PAMPA flux [%] ± SD is at or above 10%.
class 0

* * *

assay-overview: Caco2 monolayer permeation
Format: in vitro ADME, human
recorded-conditions: human, Caco-2, Caco2 monolayers, start concentration 50 µM
Method: The permeation characteristics of the Rac1 inhibitors were determined first in the artificial system PAMPA (Parallel Artificial Membrane Permeability Assay) which uses a membrane covered with a lipid to simulate the lipid bilayer of various cell types, including intestinal epithelium and second in vitro across Caco2, a human colon carcinoma cell line seeded as monolayers onto polycarbonate membranes. […]
readout-name: Papp at 90 min, 50 µM (×10⁻⁶ cm/s)
Numbers only; they are read as ×10⁻⁶ cm/s.

A selection of reference data follows.
| compound | readout-name | unit-descriptor | meas-value |
| --- | --- | --- | --- |
| c1cc(NCc2ccc3[nH]ccc3c2)nc(NCc2ccc3[nH]ccc3c2)n1 | Papp at 90 min, 50 µM | ×10⁻⁶ cm/s | 65.9 |
| COC(=O)C(CC(C)C)Nc1cc(C)nc(Nc2ccc3ncccc3c2)n1 (centres unmarked) | Papp at 90 min, 50 µM | ×10⁻⁶ cm/s | 20.5 |
| CCN(CC)CCCC(C)Nc1nccc(Nc2ccc3[nH]ccc3c2)n1 (centres unmarked) | Papp at 90 min, 50 µM | ×10⁻⁶ cm/s | 32.1 |
| CCN(CC)CCCC(C)Nc1nc(C)cc(Nc2ccc3nc(C)cc(N)c3c2)n1 (racemic) [NSC23766, reference compound] | Papp at 90 min, 50 µM | ×10⁻⁶ cm/s | 2.4 |

In the following, a different compound is considered.
Quick note, Papp at 90 min, 50 µM for CCN(CC)CCCC(C)Nc1nccc(Nc2ccc3[nH]c(C)cc3c2)n1 (centres unmarked) landed at 17.1

* * *

A collection of molecules and their measured MVC
System: HepG2 cells
assay-overview: Resazurine cytotoxicity assay (metabolic activity), HepG2
Format: cell-based, human
recorded-conditions: HepG2, 24 h; maximal viability concentration
Numbers only; they are read as µM.

A selection of reference data follows.
| molecule | test-system | MVC, µM |
| --- | --- | --- |
| CCN(CC)CCCC(C)Nc1nc(C)cc(Nc2ccc3nc(C)cc(N)c3c2)n1 (racemic) [NSC23766, reference compound] | HepG2 cells | 31.2 |
| COC(=O)C(CC(C)C)Nc1cc(C)nc(Nc2ccc3ncccc3c2)n1 (stereo not drawn) [CWB018/01034] | HepG2 cells | 62.5 |
| c1cc(NCc2ccc3[nH]ccc3c2)nc(NCc2ccc3[nH]ccc3c2)n1 [CWB020/01041] | HepG2 cells | 7.8 |

Quick note, MVC for CCN(CC)CCCC(C)Nc1nccc(Nc2ccc3[nH]ccc3c2)n1 (stereo not drawn) [CWB024/02054] landed at 7.8

Quick note, MVC for CCN(CC)CCCC(C)Nc1nccc(Nc2ccc3[nH]c(C)cc3c2)n1 (stereo not drawn) [CWB021/01039] landed at 7.8

Quick note, MVC for CCN(CC)CCCC(C)Nc1nccc(Nc2cnc3ccccc3c2)n1 (stereo not drawn) [CWB022/02052] landed at 7.8
